B1: MYBL2 (parent)
chain: FSPSQFLNFWNKQDTLELESPSLT

variants of: B1; test: protein stability index of a GFP-peptide fusion (GPS, HEK-293T) (PSI 1-6); higher = more stable; conditions: c terminus: a fixed tail appended;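 note: lentivirally expressed fusions sorted by FACS into six bins by GFP to DsRed ratio, PSI derived from sequencing read proportions per bin multiplied by bin number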
ATTRIBUTE_MEASURED: protein stability index

Recorded protein stability index, per entry:
W10S
2.91
W10F
2.18
F1D
4.27
L16S
2.5

Field: next variant
Q: I would be grateful if you could share the reported protein stability index for L7N .
Result: 3.1
